- procedure details: yeast display, Sf9 membrane polyspecificity reagent, FACS + sequencing; frameworks hold sequencing errors
measured parameter: polyreactivity (PSR sort gate)

QVQLVESGGGLVQAGGSLRLSCAASGYIFLSYAMGWYIQAPGKERELVAAISRGGRTYYADSVKGRFTISRDNAKNTVYLQMNSLKPEDTAVYYCNAVSTPGKYGYWGQGTQVTVSS    high polyreactivity
QVQLVESGGGLVQAGGSLRLSCAASGRTLYYNTMGWYRQAPGKERELVASIRWDGGSTNYADSVNGRFTISRDNAKNTVYLQMNSLKPEDTAVYYCNADPGWTELEYDYWGQGTQVTVSS    low polyreactivity
QVQLVESGGGLVQAGGSLRLSCAASGSTFTGNAMGWYRQAPGKERELVAAISRSGGRTYYADSVKGRFTISRDNAKNTVYLQMNILKPEDTGVYYCNAVRNRGQRTAFDYWGQGTQVTVSS    high polyreactivity
QVQLVESGGGIVQAGGSLRLICAASGFTFGYYTMGWYRQAPGKEREFVAAISGSGTNTYYADSVKGRFTISRDYAKNTVYLQMNSLKPEYTAVYYCNARWSLVSSGFDGGYWGQGSQVTVSS    high polyreactivity
QVQLVESGGGLVKAGGSLRLSCAASGSIFGGYAMGCYRQAPGKERELVAAISYRGASTYYADSVKWRFTISRDNAKNTVYLQMNSLKPEDTAVYYCAVAARTRARVLYGYDYWGQGTQVTVSS    low polyreactivity
QVQLVESGGGLVQAGGSLRLSCAASGRIFNYNAMGWYRQAPGKERELVATITYSDATTYYADSVKGRFTISRDNAKITVYLQMNSLKPEDTAVYYCNAPSRSYDRYISAGRRYDYWGQGTQVTVSS    low polyreactivity
QVQLVESGGGLVQAGGSLRLSCAASGFIFKWNAMGWYRQAPGKERELVAAITSGGGTYYADSVKGRFTISRDNAKNTVYLQMNSLKPEDTAVYYCAALGRYWPARRFDYWGQGTQVTVSS    high polyreactivity
QVQLVESGGGLVQAGGSLRLSCADTGSTFYNYAMGWYRQAHGKERELVAAISSGGSTNYADSVKGLFTISRDNAKNTVYLKMNSLKPEDTAVYYCARRHRVYTSRIGHDYWGQGTQGTVSS    low polyreactivity
QVQLVESGGGLVQAGGSLRLSCAASGSTFSTNALGWYREAPGKELELVDDISSSSGRTYYADSVKGRFTISRDNAKNTVYLQMNSLKPEDTAVYYCAAANQGYRSGRKGVQRFDYWGQGTQVTVSS    high polyreactivity
QVQLVESGGGLVQAGGSLRLSCAASGSTSLYNMGWYRQAPGKERELVAAIDSGSTNYADSVKGRFTISRDNAKNTVYLQMNSLKPEDTAVYYCAADGTNIGVYDRASYRDDYWGQGTQVTVSS    low polyreactivity
QVQLVESGGGLVQAGGSLRLSCAASGSIFSAYAMGWYRQAPGKERELVAAISDSGDSTYYADSVKGRFTISRDNAKNTVYLQMNSLKPEDTAVYYCAAESPKWGQGTQVTVSS    low polyreactivity

###

- procedure details: yeast display, Sf9 membrane polyspecificity reagent, FACS + sequencing; frameworks hold sequencing errors
measured parameter: polyreactivity (PSR sort gate)

QVQLVESGGGLVQAGGSLRLSCAASGRIFYRYTMGRYRQAPGKERELVAAITSSSGSTYYADSVKGRFTISRDNAKNTVYLQMNSLKPEDTAVYYCAARIYHDIDTRSYYWGQGTQVTVSS    high polyreactivity
QVQLVESGRGLVQAGGSLRISCAASGLILYTYAMGWYRQAPGKERELVAAITKSGGRTYYADSVKGRFTISRDNAKNTVYLQMNSLKPEDTAVYDCAARPYSRPYSFGFYYWGQGTQVTVSS    high polyreactivity
QVQLVESGGGLVQAGGSLRLSCAASGRIFPWNTMGWYRQAPGKERELVAGITSCGSTNYADSVKGRFTISRDNAKNTVYLQMNSLKPEDTAVYSCAARGYYWYISGVYEYEYWGQGTQVTVSS    low polyreactivity
QVQLVESGGGLVQAGGSLRLSCAASGLIFYLYAMGWYRQAPGKERELVAAITSGGGSTYYADSVKGRFTHSRDHAKNTVYLQMNSLKPEDTGVYYCAARLVLYITVVYEDDYWGQGTQVTVSS    low polyreactivity
QVQLVESGGGLVQAGGSLRLSCAASGMIFKFYDMGWYRQAPGKEREWVASISWSGGRTYYADSVKGRFTISRDNAKNTVYLQMNSLKPEDTAVYYCAAGRYYGYGYWGQGTQVTVSS    high polyreactivity
